AUC(0-t) at 24 h values, listed per item
- assay.explanation: AUC (0 to 24 hrs) in BALB/C mouse at 50 mg/kg, po
- Assay type: ADME, organism-based
- Parameters: time < 24 hr, dose 50 mg/kg, route oral
- measurement.parameters: in vivo

| mol | units.label | AUC(0-t) at 24 h |
| --- | --- | --- |
| CNc1nc(N2CCC(N)CC2)c2sc(-c3ccc(C(F)(F)F)cc3)cc2n1 | µM·h | 78.2 |
| Nc1nc(N2CCC(N)CC2)c2sc(-c3ccc(C(F)(F)F)cc3)cc2n1 | µM·h | 21.6 |
| CNc1nc(NC2CCNCC2)c2sc(-c3ccc(C(F)(F)F)cc3)cc2n1 | µM·h | 25 |

---

- assay.explanation: Solubility of the compound in phosphate buffer at pH 6.5
- Assay type: physicochemical

| molecule | solubility |
| --- | --- |
| CNc1nc(NC2CC2)c2sc(-c3ccc(C(F)(F)F)cc3)cc2n1 | < 5 µg/mL |
| Nc1nc(NC2CCOCC2)c2sc(-c3ccc(C(F)(F)F)cc3)cc2n1 | < 5 µg/mL |
| COc1nc(NCCCN(C)C)c2sc(-c3ccc(C(F)(F)F)cc3)cc2n1 | < 5 µg/mL |
| CNc1nc(NC(C)(C)C)c2sc(-c3ccc(C(F)(F)F)cc3)cc2n1 | < 1.6 µg/mL |
| CNc1nc(Nc2cccc(C(N)=O)c2)c2sc(-c3ccc(C(F)(F)F)cc3)cc2n1 | 8 µg/mL |
| Nc1nc(NC2CCCNC2)c2sc(-c3ccc(C(F)(F)F)cc3)cc2n1 (stereo unspecified) | 125 µg/mL |

---

Consider the following molecules and their measured solubility readings.
- assay.explanation: Solubility of the compound in phosphate buffer at pH 6.5
- Assay type: physicochemical

| mol | solubility |
| --- | --- |
| CNc1nc(N2CCC(N)CC2)c2sc(-c3ccc(C(F)(F)F)cc3)cc2n1 | 17 µg/mL |
| CNc1nc(NCCN2CCOCC2)c2sc(-c3ccc(C(F)(F)F)cc3)cc2n1 | 42 µg/mL |
| CNc1nc(NCC(F)(F)F)c2sc(-c3ccc(C(F)(F)F)cc3)cc2n1 | < 5 µg/mL |
| CN1CCC(Nc2nc(N)nc3cc(-c4ccc(C(F)(F)F)cc4)sc23)CC1 | 147 µg/mL |
| CNc1nc(N)c2sc(-c3ccc(C(F)(F)F)cc3)cc2n1 | 3.1 µg/mL |
| CNc1nc(NC2CCNCC2)c2sc(-c3ccc(C(F)(F)F)cc3)cc2n1 | 147 µg/mL |
| CNc1nc(NCCCN2CCOCC2)c2sc(-c3ccc(C(F)(F)F)cc3)cc2n1 | 96 µg/mL |
| CN(C)CCCNc1nc(NCc2ccccc2)nc2cc(-c3ccc(C(F)(F)F)cc3)sc12 | < 5 µg/mL |
| CN(C)CCCNc1nc(N2CCNCC2)nc2cc(-c3ccc(C(F)(F)F)cc3)sc12 | 178 µg/mL |
| Nc1nc(N2CCC(N)CC2)c2sc(-c3ccc(C(F)(F)F)cc3)cc2n1 | 134 µg/mL |

---

# remaining at 0.5 h, 0.1 µM listing for each entry below
- assay.explanation: Metabolic stability of the compound in human liver microsomes at 0.1 uM after 30 mins by LC-MS/MS analysis
- Format: ADME
- measurement.parameters: read-out: Stability

| compound | remaining at 0.5 h, 0.1 µM [%] |
| --- | --- |
| Nc1nc(NC2CCNCC2)c2sc(-c3ccc(C(F)(F)F)cc3)cc2n1 | 100 |
| Nc1nc(NC2CCOCC2)c2sc(-c3ccc(C(F)(F)F)cc3)cc2n1 | 98 |
| CNc1nc(NC2CCOCC2)c2sc(-c3ccc(C(F)(F)F)cc3)cc2n1 | 100 |
| CNc1nc(NCCN2CCOCC2)c2sc(-c3ccc(C(F)(F)F)cc3)cc2n1 | 51 |
| CNc1nc(NCCN2CCNCC2)c2sc(-c3ccc(C(F)(F)F)cc3)cc2n1 | 100 |
| CN(C)CCCNc1nc(NCc2ccccc2)nc2cc(-c3ccc(C(F)(F)F)cc3)sc12 | 100 |
| Nc1nc(N2CCC(N)CC2)c2sc(-c3ccc(C(F)(F)F)cc3)cc2n1 | 100 |
| CNc1nc(NCC(F)(F)F)c2sc(-c3ccc(C(F)(F)F)cc3)cc2n1 | 75 |
| CN(C)CCCNc1nc(N(C)C)nc2cc(-c3ccc(C(F)(F)F)cc3)sc12 | 66 |
| CNc1nc(Nc2cccc(C(N)=O)c2)c2sc(-c3ccc(C(F)(F)F)cc3)cc2n1 | 83 |
| CN(C)CCCNc1ncnc2cc(-c3ccc(C(F)(F)F)cc3)sc12 | 91 |
| CN1CCC(Nc2nc(N)nc3cc(-c4ccc(C(F)(F)F)cc4)sc23)CC1 | 95 |
| CNc1nc(NC2CCNCC2)c2sc(-c3ccc(C(F)(F)F)cc3)cc2n1 | 84 |
| CNc1nc(N2CCC(N)CC2)c2sc(-c3ccc(C(F)(F)F)cc3)cc2n1 | 93 |
| Nc1nc(NC2CCCNC2)c2sc(-c3ccc(C(F)(F)F)cc3)cc2n1 (configuration not stated) | 69 |
| CN(C)CCCNc1nc(N)nc2cc(-c3ccc(C(F)(F)F)cc3)sc12 | 94 |
| CN(C)CCCNc1nc(N2CCOCC2)nc2cc(-c3ccc(C(F)(F)F)cc3)sc12 | 92 |
